# ASSAY METHOD TEXT: Fraction unbound in mouse plasma
# Assay type: ADME, cell-free
VALUE TYPE: fraction unbound
Field format: numeric only.

Given O=C(c1cc([C@H]2CCCN2c2cc(F)cc(F)c2)c2oc(N3CCOCC3)cc(=O)c2c1)N1CCOCC1 , state its recorded fraction unbound.
0.19

----------
# ASSAY METHOD TEXT: Oral bioavailability in dog blood at 10 umol/kg
# Type: ADME, organism-based, Canis lupus familiaris
VALUE TYPE: bioavailability (%)
Field: numeric (%). Do not append units.

Look up bioavailability for this compound: O=C(c1cc([C@H]2CCCN2c2cc(F)cc(F)c2)c2oc(N3CCOCC3)cc(=O)c2c1)N1CCOCC1
29

----------
# ASSAY METHOD TEXT: Apparent permeability across apical to basolateral side in human Caco2 cells
# CONDITION DESCRIPTION: Caco-2
VALUE TYPE: Papp A→B (×10⁻⁶ cm/s)
Field format: number, assumed ×10⁻⁶ cm/s, no unit text.

These recorded examples may help you get a feel for the data.
| COMPOUND | EXPERIMENTAL RESULT |
| --- | --- |
| CN(CCO)C(=O)c1cc(C2CCCN2c2cc(F)cc(F)c2)c2oc(N3CCOCC3)cc(=O)c2c1 (racemic) | 2.6 |
| O=C(c1cc([C@H]2CCCN2c2cccc(F)c2)c2oc(N3CCOCC3)cc(=O)c2c1)N1CCOCC1 | 14 |
| CN(C)C(=O)c1cc(C2CCCN2c2cc(F)cc(F)c2)c2oc(N3CCOCC3)cc(=O)c2c1 (racemic) | 33 |
| CN1CCN(C(=O)c2cc([C@H]3CCCN3c3cc(F)cc(F)c3)c3oc(N4CCOCC4)cc(=O)c3c2)CC1 | 3.3 |

Please examine the following record next.
Requested read-out: Papp A→B. Entry: O=C(c1cc([C@H]2CCCN2c2cc(F)cc(F)c2)c2oc(N3CCOCC3)cc(=O)c2c1)N1CCOCC1
18

----------
# ASSAY METHOD TEXT: Volume of distribution at steady state in mouse blood at 5 umol/kg, iv or 30 umol/kg, po
# Type: ADME, organism-based
# CONDITION DESCRIPTION: read-out: Vdss
Known Vd of a selection of molecules
The reply should contain only the number, in L/kg.

| SMILES RECORD | UNITS SYMBOL | Vd |
| --- | --- | --- |
| O=C(c1cc([C@H]2CCCN2c2cccc(F)c2)c2oc(N3CCOCC3)cc(=O)c2c1)N1CCOCC1 | L/kg | 0.9 |

Then this molecule:
Need Vd of O=C(c1cc([C@H]2CCCN2c2cc(F)cc(F)c2)c2oc(N3CCOCC3)cc(=O)c2c1)N1CCOCC1 , thanks.
1

----------
# TARGET: Phosphatidylinositol 4,5-bisphosphate 3-kinase catalytic subunit alpha isoform (Homo sapiens, UniProt P42336, E542K)
# Sequence (P42336 whole entry E542K, the tested form may be a part, canonical isoform): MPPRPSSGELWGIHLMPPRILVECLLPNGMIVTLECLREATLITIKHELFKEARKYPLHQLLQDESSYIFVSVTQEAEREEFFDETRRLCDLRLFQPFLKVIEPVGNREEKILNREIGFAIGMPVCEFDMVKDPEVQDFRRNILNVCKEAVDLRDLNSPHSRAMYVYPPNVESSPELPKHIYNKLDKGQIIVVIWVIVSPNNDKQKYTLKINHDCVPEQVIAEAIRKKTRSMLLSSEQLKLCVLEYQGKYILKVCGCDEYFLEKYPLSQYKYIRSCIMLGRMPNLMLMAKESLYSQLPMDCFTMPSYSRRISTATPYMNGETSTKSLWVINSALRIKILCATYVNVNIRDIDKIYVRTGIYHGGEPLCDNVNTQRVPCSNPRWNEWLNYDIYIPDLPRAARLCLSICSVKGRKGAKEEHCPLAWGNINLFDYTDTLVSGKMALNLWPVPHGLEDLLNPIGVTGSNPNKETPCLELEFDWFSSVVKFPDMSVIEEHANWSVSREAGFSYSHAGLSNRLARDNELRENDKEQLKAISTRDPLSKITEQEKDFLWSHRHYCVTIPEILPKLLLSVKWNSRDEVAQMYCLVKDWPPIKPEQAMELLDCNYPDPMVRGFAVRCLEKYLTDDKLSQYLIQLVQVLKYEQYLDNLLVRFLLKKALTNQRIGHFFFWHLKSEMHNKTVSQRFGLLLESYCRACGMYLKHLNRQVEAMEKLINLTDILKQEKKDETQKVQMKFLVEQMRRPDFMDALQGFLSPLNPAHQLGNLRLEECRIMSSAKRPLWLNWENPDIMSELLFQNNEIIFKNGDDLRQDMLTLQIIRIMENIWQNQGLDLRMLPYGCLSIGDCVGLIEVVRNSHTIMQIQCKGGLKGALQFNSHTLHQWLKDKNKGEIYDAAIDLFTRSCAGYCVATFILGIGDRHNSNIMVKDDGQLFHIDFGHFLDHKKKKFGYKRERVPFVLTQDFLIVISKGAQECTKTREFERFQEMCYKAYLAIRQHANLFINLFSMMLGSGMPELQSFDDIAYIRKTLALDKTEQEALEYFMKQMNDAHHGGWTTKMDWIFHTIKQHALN
# ASSAY METHOD TEXT: Inhibition of human PI3Kalpha (2 to 1068 residues)/p85 (1 to 724 residues) E542K mutant by ADP Glo HTS assay
pIC50: −log10 of the molar value.
VALUE TYPE: pIC50

Quick one: pIC50 for O=C(c1cc([C@H]2CCCN2c2cc(F)cc(F)c2)c2oc(N3CCOCC3)cc(=O)c2c1)N1CCOCC1 ?
< 4.30

----------
# TARGET: Phosphatidylinositol 4,5-bisphosphate 3-kinase catalytic subunit gamma isoform (Homo sapiens)
# ASSAY METHOD TEXT: Inhibition of human PI3Kgamma (2 to 1102 residues) by ADP Glo HTS assay
VALUE TYPE: IC50

Name the recorded IC50 for O=C(c1cc([C@H]2CCCN2c2cc(F)cc(F)c2)c2oc(N3CCOCC3)cc(=O)c2c1)N1CCOCC1 .
> 50 µM

----------
hepatocyte CLint reference
# ASSAY METHOD TEXT: Intrinsic clearance in mouse hepatocytes assessed per million cells
# Format: ADME, cell-based, Hepatocyte
# CONDITION DESCRIPTION: read-out: CLH
Please state the figure in µL/min/1e6 cells; there is no need to write the unit.

| SMILES RECORD | EXPERIMENTAL RESULT |
| --- | --- |
| O=C(c1cc([C@H]2CCCN2c2cccc(F)c2)c2oc(N3CCOCC3)cc(=O)c2c1)N1CCOCC1 | 134 |

// lookup hepatocyte CLint for O=C(c1cc([C@H]2CCCN2c2cc(F)cc(F)c2)c2oc(N3CCOCC3)cc(=O)c2c1)N1CCOCC1
68

----------
# TARGET: Cytochrome P450 2C9 (Homo sapiens, UniProt P11712)
# Sequence (P11712 whole entry): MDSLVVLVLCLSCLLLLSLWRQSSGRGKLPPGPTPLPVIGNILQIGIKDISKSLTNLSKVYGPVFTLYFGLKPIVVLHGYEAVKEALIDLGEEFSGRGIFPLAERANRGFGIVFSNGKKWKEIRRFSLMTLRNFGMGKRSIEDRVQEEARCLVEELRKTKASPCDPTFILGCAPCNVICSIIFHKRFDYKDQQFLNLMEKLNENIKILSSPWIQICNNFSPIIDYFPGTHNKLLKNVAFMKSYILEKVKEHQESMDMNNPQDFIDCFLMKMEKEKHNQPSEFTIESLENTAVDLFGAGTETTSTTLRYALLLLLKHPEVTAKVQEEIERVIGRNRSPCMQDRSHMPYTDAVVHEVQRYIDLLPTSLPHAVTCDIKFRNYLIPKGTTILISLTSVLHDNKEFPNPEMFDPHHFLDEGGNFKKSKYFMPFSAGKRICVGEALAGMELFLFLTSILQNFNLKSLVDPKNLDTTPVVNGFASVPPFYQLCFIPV
pIC50: −log10 of the molar value.
VALUE TYPE: pIC50

Need pIC50, item O=C(c1cc([C@H]2CCCN2c2cc(F)cc(F)c2)c2oc(N3CCOCC3)cc(=O)c2c1)N1CCOCC1
< 4.52

----------
# ASSAY METHOD TEXT: Clearance in dog blood at 4 umol/kg, iv or 10 umol/kg, po
# Type: ADME, organism-based, Canis lupus familiaris
VALUE TYPE: clearance (mL/min/kg)
Give just the numeric value; mL/min/kg need not be written.

Recorded clearance of O=C(c1cc([C@H]2CCCN2c2cc(F)cc(F)c2)c2oc(N3CCOCC3)cc(=O)c2c1)N1CCOCC1 , please.
23

----------
# TARGET: Phosphatidylinositol 4,5-bisphosphate 3-kinase catalytic subunit gamma isoform (Mus musculus)
# Sequence (Q9JHG7 whole entry, canonical isoform): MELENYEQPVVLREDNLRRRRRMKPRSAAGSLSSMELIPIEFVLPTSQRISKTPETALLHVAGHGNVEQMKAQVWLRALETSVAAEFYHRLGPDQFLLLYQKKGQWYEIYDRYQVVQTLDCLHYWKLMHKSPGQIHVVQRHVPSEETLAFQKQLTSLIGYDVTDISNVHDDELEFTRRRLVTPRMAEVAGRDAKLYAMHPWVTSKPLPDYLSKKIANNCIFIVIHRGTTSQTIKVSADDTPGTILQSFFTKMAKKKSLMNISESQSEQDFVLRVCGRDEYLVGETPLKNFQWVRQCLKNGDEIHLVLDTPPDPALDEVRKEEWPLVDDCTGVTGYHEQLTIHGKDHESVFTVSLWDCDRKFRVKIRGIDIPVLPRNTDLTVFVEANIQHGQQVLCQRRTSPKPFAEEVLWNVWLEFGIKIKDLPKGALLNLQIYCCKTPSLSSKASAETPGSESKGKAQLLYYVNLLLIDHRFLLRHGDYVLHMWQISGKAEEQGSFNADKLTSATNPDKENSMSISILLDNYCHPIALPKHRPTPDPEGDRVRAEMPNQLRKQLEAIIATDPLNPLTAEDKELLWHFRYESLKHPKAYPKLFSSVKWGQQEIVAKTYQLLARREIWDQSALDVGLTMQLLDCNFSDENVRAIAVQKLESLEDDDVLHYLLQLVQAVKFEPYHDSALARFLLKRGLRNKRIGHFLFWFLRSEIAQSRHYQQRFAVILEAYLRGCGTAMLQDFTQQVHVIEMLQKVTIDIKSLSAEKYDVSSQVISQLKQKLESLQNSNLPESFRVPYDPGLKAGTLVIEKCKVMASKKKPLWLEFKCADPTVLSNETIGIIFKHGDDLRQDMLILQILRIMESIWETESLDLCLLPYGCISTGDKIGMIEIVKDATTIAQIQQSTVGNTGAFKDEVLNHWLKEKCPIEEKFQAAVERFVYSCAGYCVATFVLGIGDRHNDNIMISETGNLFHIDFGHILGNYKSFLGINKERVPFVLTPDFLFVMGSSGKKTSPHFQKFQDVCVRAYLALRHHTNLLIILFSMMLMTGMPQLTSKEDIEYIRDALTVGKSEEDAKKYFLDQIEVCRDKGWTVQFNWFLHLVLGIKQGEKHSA
# ASSAY METHOD TEXT: Inhibition of PI3Kgamma in mouse RAW264 cells assessed as decrease in AKT phosphorylation at Ser473
VALUE TYPE: IC50 (nM)
I only need the number, in nM, no unit after it.

I have this molecule here, O=C(c1cc([C@H]2CCCN2c2cc(F)cc(F)c2)c2oc(N3CCOCC3)cc(=O)c2c1)N1CCOCC1 , and I need its recorded IC50.
1500

----------
# ASSAY METHOD TEXT: Fraction unbound in dog plasma
# Assay type: ADME, cell-free, Canis lupus familiaris
VALUE TYPE: fraction unbound
Write no unit; give the number alone.

Would you kindly share the measured fraction unbound for O=C(c1cc([C@H]2CCCN2c2cc(F)cc(F)c2)c2oc(N3CCOCC3)cc(=O)c2c1)N1CCOCC1 ?
0.28

----------
# ASSAY METHOD TEXT: Volume of distribution at steady state in dog blood at 4 umol/kg, iv or 10 umol/kg, po
# Assay type: ADME, organism-based, Canis lupus familiaris
# CONDITION DESCRIPTION: read-out: Vdss
VALUE TYPE: Vd (L/kg)
Response body: numeric value in L/kg, unit text excluded.

What does the record list as Vd for O=C(c1cc([C@H]2CCCN2c2cc(F)cc(F)c2)c2oc(N3CCOCC3)cc(=O)c2c1)N1CCOCC1 ?
1.2

----------
# TARGET: Phosphatidylinositol 4,5-bisphosphate 3-kinase catalytic subunit gamma isoform (Homo sapiens, UniProt P48736)
# Sequence (P48736 whole entry, the tested form may be a part, canonical isoform): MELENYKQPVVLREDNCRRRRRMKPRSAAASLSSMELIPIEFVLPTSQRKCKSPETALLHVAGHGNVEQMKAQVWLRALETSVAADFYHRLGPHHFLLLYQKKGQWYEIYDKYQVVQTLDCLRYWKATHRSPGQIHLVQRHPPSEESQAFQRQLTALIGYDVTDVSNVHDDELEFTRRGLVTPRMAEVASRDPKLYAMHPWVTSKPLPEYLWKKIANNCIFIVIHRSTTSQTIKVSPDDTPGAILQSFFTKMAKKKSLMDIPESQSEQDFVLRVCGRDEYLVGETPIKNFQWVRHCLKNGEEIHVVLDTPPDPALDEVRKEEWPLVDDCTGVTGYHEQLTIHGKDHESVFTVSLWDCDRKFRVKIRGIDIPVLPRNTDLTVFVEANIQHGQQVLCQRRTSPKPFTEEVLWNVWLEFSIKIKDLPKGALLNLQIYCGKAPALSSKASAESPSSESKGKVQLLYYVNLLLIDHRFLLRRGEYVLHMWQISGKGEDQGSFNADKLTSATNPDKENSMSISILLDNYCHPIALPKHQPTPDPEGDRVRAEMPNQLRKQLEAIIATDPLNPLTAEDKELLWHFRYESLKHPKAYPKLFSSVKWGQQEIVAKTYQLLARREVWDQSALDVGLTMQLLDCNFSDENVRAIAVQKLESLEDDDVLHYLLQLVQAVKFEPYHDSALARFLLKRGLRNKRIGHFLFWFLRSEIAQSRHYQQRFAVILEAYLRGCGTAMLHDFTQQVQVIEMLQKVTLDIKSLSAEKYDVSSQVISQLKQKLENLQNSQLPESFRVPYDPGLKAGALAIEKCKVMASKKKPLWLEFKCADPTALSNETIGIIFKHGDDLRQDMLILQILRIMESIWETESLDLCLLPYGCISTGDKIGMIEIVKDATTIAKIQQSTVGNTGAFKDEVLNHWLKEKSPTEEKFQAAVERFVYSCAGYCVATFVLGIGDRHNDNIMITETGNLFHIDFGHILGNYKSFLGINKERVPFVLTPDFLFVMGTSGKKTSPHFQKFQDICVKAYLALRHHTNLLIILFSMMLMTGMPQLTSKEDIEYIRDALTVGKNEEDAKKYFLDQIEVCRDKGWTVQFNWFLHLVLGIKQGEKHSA
# ASSAY METHOD TEXT: Inhibition of recombinant human PI3Kgamma using PIP2 as substrate preincubated for 20 mins followed by substrate addition measured after 80 mins in presence of ATP by Kinase Glo luminescence assay
# IC50 annotations
Please reply with the bare figure in nM and do not write the unit itself.

Solved entries (count: 2):
| SMILES RECORD | UNITS SYMBOL | IC50 |
| --- | --- | --- |
| O=C(c1cc([C@H]2CCCN2c2cc(F)cc(F)c2)c2oc(N3CCOCC3)cc(=O)c2c1)N1CCOCC1 | nM | 190 |
| O=C(c1cc([C@H]2CCCN2c2cccc(F)c2)c2oc(N3CCOCC3)cc(=O)c2c1)N1CCOCC1 | nM | 340 |

Attention now turns to another entry.
Given the molecule CN(C)C(=O)c1cc([C@H]2CCCN2c2ccc(F)cc2)c2oc(N3CCOCC3)cc(=O)c2c1 , what is its reported IC50?
330

----------
# ASSAY METHOD TEXT: AUC in mouse at 30 umol/kg, po
# Format: ADME
# CONDITION DESCRIPTION: in vivo
Measured AUC accompanies every entry in the list below.
// units = µM·h; emit number, no label

Solved entries:
| MOLECULE | EXPERIMENTAL RESULT |
| --- | --- |
| CN(CCO)C(=O)c1cc(C2CCCN2c2cc(F)cc(F)c2)c2oc(N3CCOCC3)cc(=O)c2c1 (racemic) | 0.3 |
| CN(C)C(=O)c1cc(C2CCCN2c2ccccc2)c2oc(N3CCOCC3)cc(=O)c2c1 (racemic) | 6 |
| O=C(c1cc([C@H]2CCCN2c2cccc(F)c2)c2oc(N3CCOCC3)cc(=O)c2c1)N1CCOCC1 | 1.7 |
| CN(C)C(=O)c1cc([C@H]2CCCN2c2ccc(F)cc2)c2oc(N3CCOCC3)cc(=O)c2c1 | 1 |
| O=C(c1cc([C@H]2CCCN2c2cc(F)cc(F)c2)c2oc(N3CCOCC3)cc(=O)c2c1)N1CCOCC1 | 2.8 |

Now consider a different molecule.
Please look up its AUC: CN(C)C(=O)c1cc(C2CCCN2c2cc(F)cc(F)c2)c2oc(N3CCOCC3)cc(=O)c2c1 (racemic)
2.4

These entries and their values trace back to ChEMBL document CHEMBL4014298.
